EC50 values for the compounds below.
# experimental target: UniProt P41143
# test summary: cell-based
# condition label: dOR cAMP Agonist Assay EC50, CHO Tag-lite human dOR stable cell line; forskolin
value type: EC50

1. CN(C)[C@H](CNC(=O)C[C@H](c1ccccc1)C1(C(F)(F)F)CC1)Cc1ccc(C(N)=O)cc1Cl :: > 3 µM
2. CN(C)[C@H](CNC(=O)C[C@@H](c1ccccc1)C(C)(C)C)Cc1ccc(C(N)=O)cc1 [Compound 95] :: > 3 µM
3. Cc1cc(C(N)=O)cc(C)c1C[C@@H](CNC(=O)C[C@@H](c1ccccc1)C1CC1)N(C)C :: > 3 µM
4. CN(C)[C@H](CNC(=O)C[C@H](CC1CCC1)c1ccccc1)Cc1ccc(C(N)=O)cc1 :: < 0.3 µM
5. CN(C)[C@H](CNC(=O)C[C@H](c1ccccc1)C1CC1)Cc1ccc(O)cc1 :: < 0.3 µM
6. CN(C)[C@H](CNC(=O)C[C@H](c1ccccc1)C1CC1)Cc1ccc2[nH]c(=O)oc2c1 :: 0.3 to 3 µM
7. Cc1cc(C(N)=O)cc(C)c1C[C@@H](CNC(=O)C[C@H](c1ccccc1)C(C)(C)C)N(C)C :: > 3 µM

----------
# experimental target: UniProt:P41143
# test summary: cell-based
# condition label: dOR cAMP Agonist Assay EC50, CHO Tag-lite human dOR stable cell line; forskolin
pEC50: −log10 of the molar value.
Catalogue of pEC50 values
value type: pEC50

1) C[C@@H](CC(=O)NC[C@H](Cc1ccc2[nH]ncc2c1)N(C)C)c1ccc(Cl)cc1 :: < 5.52
2) CC(C)[C@@H](CC(=O)NC[C@H](Cc1ccc2[nH]c(=O)oc2c1)N(C)C)c1ccccc1 :: > 6.52
3) CC(C)C[C@@H](CC(=O)NC[C@H](Cc1ccc2c(c1)CC(=O)N2)N(C)C)c1ccccc1 :: < 5.52
4) Cc1ccc([C@@H](CC(=O)NC[C@H](Cc2ccc(C(N)=O)c(F)c2Cl)N(C)C)C2(C(F)(F)F)CC2)cn1 :: 5.52 to 6.52
5) Cc1cc(C(N)=O)cc(C)c1C[C@@H](CNC(=O)C[C@@H](CC(C)C)c1ccccc1)N(C)C :: < 5.52
6) CNC(=O)c1ccc(C[C@@H](CNC(=O)C[C@H](c2ccccc2)C(C)(C)C)N(C)C)cc1Cl :: < 5.52
7) CNC(=O)c1ccc(C[C@@H](CNC(=O)C[C@H](c2ccccc2)C(C)(C)C)N(C)C)cc1F :: < 5.52

----------
# experimental target: human dOR (Homo sapiens (Human), UniProt P41143)
# Sequence (P41143 whole entry): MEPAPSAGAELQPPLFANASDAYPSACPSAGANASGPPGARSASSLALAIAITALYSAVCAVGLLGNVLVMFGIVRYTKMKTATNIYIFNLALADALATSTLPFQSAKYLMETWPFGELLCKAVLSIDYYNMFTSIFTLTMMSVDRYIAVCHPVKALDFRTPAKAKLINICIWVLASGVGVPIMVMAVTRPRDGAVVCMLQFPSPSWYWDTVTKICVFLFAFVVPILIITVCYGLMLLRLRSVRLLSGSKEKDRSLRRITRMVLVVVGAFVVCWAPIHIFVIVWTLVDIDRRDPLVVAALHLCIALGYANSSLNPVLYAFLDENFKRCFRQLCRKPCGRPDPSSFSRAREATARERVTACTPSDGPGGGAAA
# test summary: cell-based
# condition label: dOR cAMP Agonist Assay EC50, CHO Tag-lite human dOR stable cell line; forskolin
value type: EC50

1) CNC(=O)c1cc(F)c(C[C@@H](CNC(=O)C[C@H](c2ccccc2)C(C)(C)C)N(C)C)cc1F :: 0.3 to 3 µM
2) CNC(=O)c1ccc(C[C@@H](CNC(=O)C[C@H](c2ccc(Cl)cc2)C2(C(F)(F)F)CC2)N(C)C)c(C)c1 :: > 3 µM
3) CC(C)[C@H](CC(=O)NC[C@H](Cc1ccc(C(N)=O)cc1)N(C)C)c1ccccc1 :: < 0.3 µM
4) CN(C)[C@H](CNC(=O)CC(C)(C)c1ccccc1)Cc1ccc2[nH]ncc2c1 :: > 3 µM
5) CCCC[C@@H](CC(=O)NC[C@H](Cc1ccc2[nH]c(=O)oc2c1)N(C)C)c1ccccc1 :: < 0.3 µM
6) Cc1ncc([C@@H](CC(=O)NC[C@H](Cc2ccc(C(N)=O)c(F)c2)N(C)C)C2(C(F)(F)F)CC2)cn1 :: > 3 µM
7) Cc1cc(C(N)=O)cc(C)c1C[C@@H](CNC(=O)C[C@@H](c1ccccc1)C(C)C)N(C)C :: > 3 µM
8) C[C@@H](CC(=O)NC[C@H](Cc1ccc2[nH]ncc2c1)N(C)C)c1ccccn1 :: 0.3 to 3 µM
9) CN(C)[C@H](CNC(=O)C[C@@H](c1ccccc1)C1CC1)Cc1ccc2[nH]ncc2c1 :: 0.3 to 3 µM
10) Cc1cc(O)cc(C)c1C[C@@H](CNC(=O)C[C@H](c1ccccc1)C1CC1)N(C)C :: > 3 µM
11) CNC(=O)c1ccc(C[C@@H](CNC(=O)C[C@@H](C)c2ccc(Cl)cc2)N(C)C)cc1F :: < 0.3 µM
12) CC(=O)Oc1ccc(C[C@@H](CNC(=O)C[C@H](C)c2ccccc2)N(C)C)cc1Cl :: < 0.3 µM
13) CNC(=O)c1ccc(C[C@@H](CNC(=O)C[C@H](C)c2ccccn2)N(C)C)cc1F :: > 3 µM
14) CN(C)[C@H](CNC(=O)C[C@@H](c1ccccc1)C1CC1)Cc1ccc2[nH]c(=O)oc2c1 :: 0.3 to 3 µM
15) CC(C)C[C@@H](CC(=O)NC[C@H](Cc1ccc2[nH]ncc2c1)N(C)C)c1ccccc1 :: < 0.3 µM

----------
# experimental target: human dOR (Homo sapiens (Human), UniProt P41143)
# test summary: cell-based
# condition label: read-out: dOR cAMP Agonist Assay EC50
pEC50: −log10 of the molar value.
value type: pEC50

1) CC(C)C[C@H](CC(=O)NC[C@H](Cc1ccc(-c2cn[nH]c2)cc1Cl)N(C)C)c1ccccc1 :: < 5.52

----------
# experimental target: kOR (OPRK1) (Homo sapiens (Human))
# Sequence (P41145 whole entry): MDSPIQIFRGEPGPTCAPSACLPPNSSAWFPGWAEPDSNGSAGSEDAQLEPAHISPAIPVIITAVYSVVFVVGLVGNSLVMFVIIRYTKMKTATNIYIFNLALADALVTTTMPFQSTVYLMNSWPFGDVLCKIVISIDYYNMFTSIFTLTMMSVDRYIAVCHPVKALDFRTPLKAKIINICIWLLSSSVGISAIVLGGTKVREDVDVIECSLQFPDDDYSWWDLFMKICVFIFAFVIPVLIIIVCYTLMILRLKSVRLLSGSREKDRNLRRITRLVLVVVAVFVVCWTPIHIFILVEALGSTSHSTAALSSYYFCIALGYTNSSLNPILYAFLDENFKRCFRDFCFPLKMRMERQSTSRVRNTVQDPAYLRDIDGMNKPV
# test summary: KOR β-Arrestin antagonist assay (Tango OPRK1-bla U2OS cells)
pIC50: −log10 of the molar value.
value type: pIC50

1. CN[C@H](CNC(=O)C[C@H](c1ccccc1)C1(C(F)(F)F)CC1)Cc1ccc(C(N)=O)cc1 :: > 6.52
2. Cc1ncc([C@@H](CC(=O)NC[C@H](Cc2ccc(C(N)=O)cc2Cl)N(C)C)C2(C(F)(F)F)CC2)cn1 :: > 6.52
3. Cc1cc(C(N)=O)cc(C)c1C[C@@H](CNC(=O)C[C@H](c1ccccc1)C1(C(F)(F)F)CC1)N(C)C :: > 6.52

----------
# experimental target: kOR (OPRK1) (Homo sapiens (Human))
# test summary: KOR β-Arrestin antagonist assay (Tango OPRK1-bla U2OS cells)
# IC50 per record follows
value type: IC50

1. CN(C)[C@H](CNC(=O)CC(c1ncc(Cl)cn1)C1(C(F)(F)F)CC1)Cc1ccc(C(N)=O)c(F)c1 (stereo partly shown) [Compound 73] :: < 300 nM
2. Cc1ncc([C@@H](CC(=O)NC[C@H](Cc2ccc(C(N)=O)c(F)c2)N2CCCC2)C2(C(F)(F)F)CC2)cn1 [Compound 65] :: 300 to 3000 nM
3. CC(C)C[C@H](CC(=O)NC[C@H](Cc1ccc(C(N)=O)cc1)N(C)C)c1ccccc1 [Compound 96] :: < 300 nM
4. COc1ncc(C(CC(=O)NC[C@H](Cc2ccc(C(N)=O)cc2Cl)N(C)C)C2(C(F)(F)F)CC2)cn1 (stereo partly shown) [Compound 33] :: < 300 nM

----------
# experimental target: UniProt:P41143
# test summary: cell-based
# condition label: dOR cAMP Agonist Assay EC50, CHO Tag-lite human dOR stable cell line; forskolin
pEC50: −log10 of the molar value.
Entries annotated with measured pEC50
value type: pEC50

1) CNC(=O)c1ccc(C[C@@H](CNC(=O)C[C@@H](CC(C)C)c2ccccc2)N(C)C)cc1F [Compound 160] :: > 6.52
2) CC(C)[C@@H](CC(=O)NC[C@H](Cc1ccc2c(c1)CC(=O)N2)N(C)C)c1ccccc1 [Compound 182] :: < 5.52
3) C[C@@H](CC(=O)NC[C@H](Cc1ccc2c(c1)OCC(=O)N2)N(C)C)c1ccccc1 [Compound 187] :: > 6.52
4) CC(C)C[C@@H](CC(=O)NC[C@H](Cc1ccc2[nH]c(=O)oc2c1)N(C)C)c1ccccc1 [Compound 172] :: > 6.52
5) CN(C)[C@H](CNC(=O)C[C@@H](c1ccccc1)C1(C(F)(F)F)CC1)Cc1ccc(C(N)=O)cc1 [Compound 88] :: > 6.52
6) CC(C)[C@@H](CC(=O)NC[C@H](Cc1ccc(C(N)=O)cc1Cl)N(C)C)c1ccccc1 [Compound 40] :: > 6.52
7) CNC(=O)c1ccc2c(c1)CN(C)[C@H](CNC(=O)C[C@H](c1ccccc1)C(C)(C)C)C2 [Compound 168] :: < 5.52

----------
Each entry below carries its reported pIC50.
# experimental target: human mOR (Homo sapiens (Human), UniProt P35372)
# Sequence (P35372 whole entry): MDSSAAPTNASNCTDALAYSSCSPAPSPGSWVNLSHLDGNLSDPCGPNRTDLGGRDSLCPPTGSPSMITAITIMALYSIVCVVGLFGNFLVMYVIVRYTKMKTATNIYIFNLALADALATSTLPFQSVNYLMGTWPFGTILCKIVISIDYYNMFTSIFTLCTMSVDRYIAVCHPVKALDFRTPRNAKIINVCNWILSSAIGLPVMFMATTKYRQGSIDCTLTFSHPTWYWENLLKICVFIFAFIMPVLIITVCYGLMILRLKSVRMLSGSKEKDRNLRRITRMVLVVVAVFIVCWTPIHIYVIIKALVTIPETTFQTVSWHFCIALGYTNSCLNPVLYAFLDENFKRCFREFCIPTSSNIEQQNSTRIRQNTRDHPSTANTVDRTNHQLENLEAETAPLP
# test summary: cell-based
# condition label: CHO Tag-lite human mOR stable cell line; forskolin 4 μM and DAMGO at EC90; read-out: mOR cAMP Antagonist Assay IC50
pIC50: −log10 of the molar value. Where a name gives a salt, the structure may show the parent alone.
value type: pIC50

1. CN(C)[C@H](CNC(=O)C[C@@H](c1cncc(F)c1)C(C)(C)C)Cc1ccc(C(N)=O)c(F)c1 :: > 6.52
2. Cc1cc(O)cc(C)c1C[C@@H](CNC(=O)C1CC1c1ncccn1)N(C)C (some centres unmarked) :: 5.52 to 6.52
3. CC(C)C[C@@H](CC(=O)NC[C@H](Cc1ccc2[nH]ncc2c1)N(C)C)c1ccccc1 :: > 6.52
4. CN(C)[C@H](CNC(=O)CC(c1cncnc1)C1(C(F)(F)F)CC1)Cc1ccc(C(N)=O)c(F)c1 (some centres unmarked) :: > 6.52
5. CNC(=O)c1cc(C)c(C[C@@H](CNC(=O)C[C@@H](CC(C)C)c2ccccn2)N(C)C)c(C)c1 :: < 5.52
6. Cc1cc(C(N)=O)cc(C)c1C[C@@H](CNC(=O)C[C@H](c1ccccc1)C1(C(F)(F)F)CC1)N(C)C :: < 5.52
7. CC(C)[C@H](CC(=O)NC[C@H](Cc1ccc2[nH]ncc2c1)N(C)C)c1cccnc1 :: 5.52 to 6.52
8. Cc1cnc([C@@H](CC(=O)NC[C@H](Cc2ccc(-c3nnc[nH]3)cc2)N(C)C)C2(C(F)(F)F)CC2)s1 :: 5.52 to 6.52
9. CN(C)[C@H](CNC(=O)CC(c1ccc(C(F)(F)F)nc1)C1(C(F)(F)F)CC1)Cc1ccc(C(N)=O)cc1Cl (some centres unmarked) :: > 6.52
10. CN(C)[C@H](CNC(=O)CC(c1cncc(F)c1)C1(C(F)(F)F)CC1)Cc1ccc(C(N)=O)cc1Cl (some centres unmarked) :: > 6.52
11. CN(C)[C@H](CNC(=O)C[C@@H](c1ccccc1)C1(C(F)(F)F)CC1)Cc1ccc2[nH]ncc2c1 :: 5.52 to 6.52
12. CN(C)[C@H](CNC(=O)CC(c1ncccn1)C1(C(F)(F)F)CC1)Cc1ccc2c(c1)CC(=O)N2 (some centres unmarked) :: 5.52 to 6.52
13. CN(C)[C@H](CNC(=O)C[C@H](c1ccncc1)C1(C(F)(F)F)CC1)Cc1cc2cn[nH]c2cc1Cl :: > 6.52
14. CN(C)[C@H](CNC(=O)CC(c1ccncc1)C1(C(F)(F)F)CC1)Cc1ccc(C(N)=O)c(F)c1 (some centres unmarked) :: < 5.52
15. CNC(=O)c1cc(C)c(C[C@@H](CNC(=O)C[C@H](c2ccc(Cl)cc2)C2(C(F)(F)F)CC2)N(C)C)c(C)c1 :: < 5.52
16. CNC(=O)c1ccc(C[C@@H](CNC(=O)C[C@@H](c2ccncc2)C2(C(F)(F)F)CC2)N(C)C)c(Cl)c1F [Compound 110] :: < 5.52
17. CN(C)[C@H](CNC(=O)C[C@H](c1ccncc1)C1(C(F)(F)F)CC1)Cc1ccc2[nH]ncc2c1Cl :: > 6.52
18. CN(C)[C@H](CNC(=O)C[C@H](c1ccccc1)C1CC1)Cc1ccc(O)cc1 :: < 5.52
19. N[C@H](CNC(=O)C[C@H](c1cccnc1)C1(C(F)(F)F)CC1)Cc1ccc2[nH]ncc2c1 [Compound 201, dihydrochloride salt] :: < 5.52
20. CN(C)[C@H](CNC(=O)C[C@H](c1cncs1)C1CC1)Cc1ccc(O)cc1 :: 5.52 to 6.52
21. C[C@H](CC(=O)NC[C@H](Cc1ccc2[nH]ncc2c1)N(C)C)c1cccc(F)c1 :: > 6.52
22. CC(C)[C@@H](CC(=O)NC[C@H](Cc1ccc2[nH]ncc2c1)N(C)C)c1ccccc1 :: > 6.52
23. CN(C)[C@H](CNC(=O)C[C@@H](c1ccccc1)C1CC1)Cc1ccc2[nH]ncc2c1 :: > 6.52
24. CN(C)[C@H](CNC(=O)C[C@H](c1ccccc1)C(C)(C)C)Cc1ccc(C(=O)NCC(F)(F)F)c(F)c1 :: > 6.52
25. CN(C)[C@H](CNC(=O)C[C@H](c1cccnc1)C1CC1)Cc1ccc(O)cc1 :: 5.52 to 6.52
26. CN(C)[C@H](CNC(=O)C[C@@H](CC1CC1)c1cccnc1)Cc1ccc2[nH]ncc2c1 :: < 5.52
27. Cc1cc(O)cc(C)c1C[C@@H](CNC(=O)C[C@H](C)c1ccc(Cl)cc1)N(C)C :: 5.52 to 6.52
28. CN(C)[C@H](CNC(=O)C[C@H](c1cccnc1)C1CC1)Cc1ccc2[nH]ncc2c1 :: < 5.52
29. CN(C)[C@H](CNC(=O)C[C@H](c1cncc(Cl)c1)C1(C(F)(F)F)CC1)Cc1ccc2[nH]ncc2c1 :: > 6.52
